The origin of these recorded values is patent US20170182108A1.

System: thoracic aorta specimens of SHRs
Assay: measurement test of isometric tension in blood vessels (vasodilatory effect on phenylephrine-constricted ring specimens)
Assay type: cell-based, rat (spontaneously hypertensive rat, SHR)
Details: Rattus norvegicus; hydrochloride salt, summary sentence b69; read-out: EC50 of vasodilatory effect (unit inferred)
pEC50: −log10 of the molar value.
metric name: pEC50

* CC(=O)OCC[N+](C)(C)C | 7.57
